target: FGFR3 enzyme (Millipore) (Homo sapiens)
Construct: purchased Millipore
Sequence (P22607 23-806): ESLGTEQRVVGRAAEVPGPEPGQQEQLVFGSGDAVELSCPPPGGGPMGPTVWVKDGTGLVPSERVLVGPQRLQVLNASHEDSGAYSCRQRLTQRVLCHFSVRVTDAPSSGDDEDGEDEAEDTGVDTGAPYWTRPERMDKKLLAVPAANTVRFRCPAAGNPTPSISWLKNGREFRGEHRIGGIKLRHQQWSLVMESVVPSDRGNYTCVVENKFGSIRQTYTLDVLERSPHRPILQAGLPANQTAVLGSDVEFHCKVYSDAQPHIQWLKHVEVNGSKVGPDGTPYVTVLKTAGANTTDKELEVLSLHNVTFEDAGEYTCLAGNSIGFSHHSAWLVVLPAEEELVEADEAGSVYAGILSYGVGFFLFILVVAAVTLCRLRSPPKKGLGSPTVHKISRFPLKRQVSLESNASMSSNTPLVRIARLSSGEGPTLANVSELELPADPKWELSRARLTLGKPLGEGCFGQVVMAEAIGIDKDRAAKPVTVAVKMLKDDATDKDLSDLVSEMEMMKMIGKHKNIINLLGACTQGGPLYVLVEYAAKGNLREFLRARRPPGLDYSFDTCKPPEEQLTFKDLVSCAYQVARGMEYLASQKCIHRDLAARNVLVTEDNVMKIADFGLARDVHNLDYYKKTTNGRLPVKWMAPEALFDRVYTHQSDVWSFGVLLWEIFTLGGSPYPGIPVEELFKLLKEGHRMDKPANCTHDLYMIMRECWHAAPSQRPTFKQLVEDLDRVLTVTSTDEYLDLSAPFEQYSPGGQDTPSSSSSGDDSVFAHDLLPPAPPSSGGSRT
protocol: FGFR Enzymatic Assay (peptide phosphorylation, FRET)
Assay type: biochemical
condition.description: pre-incubated for 4 hours; ATP 140 μM, peptide 500 nM
reported.property: IC50

Consider the following illustrative entries.
[
  {
    "entry.smiles": "COc1cc2[nH]nc(-c3cnn(C4CCN(C(C)=O)CC4)c3)c2cc1C(=O)Nc1c(C)cccc1C",
    "target": "FGFR3 enzyme (Millipore) (Homo sapiens)",
    "IC50": "< 10 nM"
  },
  {
    "entry.smiles": "Cn1cc(-c2n[nH]c3cc(Cl)c(C(=O)Nc4c(F)cccc4Cl)cc23)cn1",
    "target": "FGFR3 enzyme (Millipore) (Homo sapiens)",
    "IC50": "≥ 200 nM"
  }
]

The recorded IC50 for `COc1cc2[nH]nc(-c3cnn(C)c3)c2cc1C(=O)Nc1c(C)cccc1Cl` is < 10 nM

Entry `COc1cc2[nH]nc(-c3cnn(C4CN(C(C)=O)C4)c3)c2cc1C(=O)Nc1c(C)cccc1C` ; IC50 = < 10 nM

====

Listed below: IC50 values for each entry.
target: FGFR3 enzyme (Millipore) (Homo sapiens)
Construct: purchased Millipore
protocol: FGFR Enzymatic Assay (peptide phosphorylation, FRET)
Assay type: biochemical
condition.description: pre-incubated for 4 hours; ATP 140 μM, peptide 500 nM

Some compounds with known IC50 results, for comparison:
[
  {
    "entry.smiles": "CCc1cccc(C)c1NC(=O)c1cc2c(-c3cnn(C)c3)n[nH]c2cc1OC",
    "IC50": "< 10 nM"
  },
  {
    "entry.smiles": "COc1cc2[nH]nc(-c3cnn(CCN4CCOCC4)c3)c2cc1C(=O)Nc1c(C)cccc1C",
    "IC50": "10 to 30 nM"
  },
  {
    "entry.smiles": "COc1cc2[nH]nc(-c3ccc(N4CCN(C)CC4)nc3)c2cc1C(=O)Nc1c(C)cccc1C",
    "IC50": "< 10 nM"
  },
  {
    "entry.smiles": "COc1cc2[nH]nc(-c3cnn(C)c3)c2cc1C(=O)Nc1c(C)cc(NS(C)(=O)=O)cc1C",
    "IC50": "10 to 30 nM"
  },
  {
    "entry.smiles": "Cc1cccc(C)c1NC(=O)c1cc2c(-c3cnn(C)c3)n[nH]c2cc1Cl",
    "IC50": "30 to 200 nM"
  }
]

Item: `COc1cc2[nH]nc(-c3cnn(C4CCC4)c3)c2cc1C(=O)Nc1c(C)cccc1C` | System: FGFR3 enzyme (Millipore) (Homo sapiens) | IC50: < 10 nM

Lab note: compound `COc1cc2[nH]nc(-c3cnn(C)c3)c2cc1C(=O)Nc1c(C)cc(N(C)C)cc1C` tested on FGFR3 enzyme (Millipore) (Homo sapiens); recorded IC50 was 30 to 200 nM

GET /values?item= `COc1cc2[nH]nc(-c3cnn(C4CC4)c3)c2cc1C(=O)Nc1c(F)cccc1Cl` &system= FGFR3 enzyme (Millipore) (Homo sapiens) returns IC50: 10 to 30 nM

# value of IC50, FGFR3 enzyme (Millipore) (Homo sapiens), item `COc1cc2[nH]nc(-c3cnn(C4CCN(C)CC4)c3)c2cc1C(=O)Nc1c(C)cccc1C` = < 10 nM

Hey, FGFR3 enzyme (Millipore) (Homo sapiens) data for `COc1cc2[nH]nc(-c3cnn(C)c3)c2cc1C(=O)Nc1c(C)cccc1F` : IC50 came out at < 10 nM

The measured values listed here are drawn from patent US12122767B2.
